Sourced from PubChem BioAssay AID1918949

System: K24384-001-R-PDC complex spheroid viability
Experiment: Anticancer human tumor K24384-001-R-PDC patient-derived pancreatic adenocarcinoma cell line growth inhibition
Conditions: second compound 0.1 µM; first compound 1 µM; stronger effect = lower value
Listing: viability, T/C of selected compounds
Answer format: numeric, % implied, no suffix.

Consider the worked cases shown below.
compound	tgt	value_unit	viability, T/C
COc1ccc([C@@H](O)c2cc(-c3ncnc4cc(N5CCOCC5)ccc34)c(F)cc2Cl)nn1 + NC1CC1c1ccc(-c2cccc(O)c2)cc1	K24384-001-R-PDC complex spheroid viability	%	55.9
O=C(C=Cn1cnc(-c2cc(C(F)(F)F)cc(C(F)(F)F)c2)n1)NNc1cnccn1 + NC1CCC(NC2CC2c2ccccc2)CC1	K24384-001-R-PDC complex spheroid viability	%	23.9
O=C(c1cc(Cc2n[nH]c(=O)c3ccccc23)ccc1F)N1CCN(C(=O)C2CC2)CC1 + NC1CCC(NC2CC2c2ccccc2)CC1	K24384-001-R-PDC complex spheroid viability	%	86.5
CC(C)c1c(-c2ccccc2)nc2c(C#N)c[nH]n2c1=O + NC1CC1c1ccc(-c2cccc(O)c2)cc1	K24384-001-R-PDC complex spheroid viability	%	86.7

Request: Any idea what viability, T/C came out for O=C(c1cc(Cc2n[nH]c(=O)c3ccccc23)ccc1F)N1CCN(C(=O)C2CC2)CC1 + NC1CC1c1ccc(-c2cccc(O)c2)cc1 on K24384-001-R-PDC complex spheroid viability?
Response: 65.8

Request: Observed viability, T/C on K24384-001-R-PDC complex spheroid viability for CC(C)c1c(-c2ccccc2)nc2c(C#N)c[nH]n2c1=O + NC1CCC(NC2CC2c2ccccc2)CC1 , please.
Response: 77.3

Request: # value lookup — system K24384-001-R-PDC complex spheroid viability, readout viability, T/C, item CC1(C)CCC(CN2CCN(c3ccc(C(=O)NS(=O)(=O)c4ccc(NCC5CCOCC5)c([N+](=O)[O-])c4)c(Oc4cnc5[nH]ccc5c4)c3)CC2)=C(c2ccc(Cl)cc2)C1 + NC1CCC(NC2CC2c2ccccc2)CC1
Response: 89.8

----------
Test system: K24384-001-R-PDC complex spheroid viability
Test: Anticancer human tumor K24384-001-R-PDC cell line growth inhibition;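 further: spheroids exposed to agents for seven days before luminescence viability reading; 100% = DMSO vehicle control viability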
Conditions: second compound 0.316 µM; first compound 0.01 µM; stronger effect = lower value
recorded_endpoint: viability, T/C

Solved cases (8 shown):
> print(dat)
                                   compound                                       tgt  result
1  CC(C)CC(NC(=O)CNC(=O)c1cc(Cl)ccc1Cl)B1OC(=O)CC(CC(=O)O)(C(=O)O)O1 (stereo unspecified) + NC1CC1c1ccc(-c2cccc(O)c2)cc1  K24384-001-R-PDC complex spheroid viability   47.8%
2  CC[C@@]1(O)C(=O)OCc2c1cc1n(c2=O)Cc2cc3c(CN(C)C)c(O)ccc3nc2-1 + NC1CCC(NC2CC2c2ccccc2)CC1  K24384-001-R-PDC complex spheroid viability     84%
3  O=C(C=Cn1cnc(-c2cc(C(F)(F)F)cc(C(F)(F)F)c2)n1)NNc1cnccn1 + NC1CC1c1ccc(-c2cccc(O)c2)cc1  K24384-001-R-PDC complex spheroid viability   72.8%
4  Cn1ncnc1C1c2n[nH]c(=O)c3cc(F)cc(c23)NC1c1ccc(F)cc1 (stereo unspecified) + NC1CCC(NC2CC2c2ccccc2)CC1  K24384-001-R-PDC complex spheroid viability   93.5%
5  CC[C@@]1(O)C(=O)OCc2c1cc1n(c2=O)Cc2cc3c(CN(C)C)c(O)ccc3nc2-1 + NC1CC1c1ccc(-c2cccc(O)c2)cc1  K24384-001-R-PDC complex spheroid viability   53.5%
6  Nc1ncn(C2CC(O)C(CO)O2)c(=O)n1 (stereo unspecified) + NC1CC1c1ccc(-c2cccc(O)c2)cc1  K24384-001-R-PDC complex spheroid viability   98.4%
7  COc1cc(Nc2ncc3c(n2)-c2ccc(Cl)cc2C(c2c(F)cccc2OC)=NC3)ccc1C(=O)O + NC1CC1c1ccc(-c2cccc(O)c2)cc1  K24384-001-R-PDC complex spheroid viability   63.1%
8  O=C(C=Cn1cnc(-c2cc(C(F)(F)F)cc(C(F)(F)F)c2)n1)NNc1cnccn1 + NC1CCC(NC2CC2c2ccccc2)CC1  K24384-001-R-PDC complex spheroid viability   69.8%

Request: Looking for the measured viability, T/C of CC(C)CC(NC(=O)C(Cc1ccccc1)NC(=O)c1cnccn1)B(O)O (stereo unspecified) + NC1CCC(NC2CC2c2ccccc2)CC1 , can you help?
Response: 0.08%

Request: Dear colleague, I am looking for the recorded viability, T/C of the following compound: CC(C)CC(NC(=O)C(Cc1ccccc1)NC(=O)c1cnccn1)B(O)O (stereo unspecified) + NC1CC1c1ccc(-c2cccc(O)c2)cc1
Response: 0.3%

Request: Give the measured viability, T/C of CC(C)CC(NC(=O)CNC(=O)c1cc(Cl)ccc1Cl)B1OC(=O)CC(CC(=O)O)(C(=O)O)O1 (stereo unspecified) + NC1CCC(NC2CC2c2ccccc2)CC1 .
Response: 27.2%

Request: What measured viability, T/C goes with CC1COCCN1c1cc(-c2ccnn2C)c2ccnc(-c3ccn[nH]3)c2n1 (stereo unspecified) + NC1CCC(NC2CC2c2ccccc2)CC1 ?
Response: 48.3%

Request: For the compound shown here, COc1cc(Nc2ncc3c(n2)-c2ccc(Cl)cc2C(c2c(F)cccc2OC)=NC3)ccc1C(=O)O + NC1CCC(NC2CC2c2ccccc2)CC1 , give the reported viability, T/C.
Response: 72%

Request: Data request, read-out viability, T/C, for Nc1ncn(C2CC(O)C(CO)O2)c(=O)n1 (stereo unspecified) + NC1CCC(NC2CC2c2ccccc2)CC1
Response: 79.4%

Request: Which measured viability, T/C value corresponds to CC1COCCN1c1cc(-c2ccnn2C)c2ccnc(-c3ccn[nH]3)c2n1 (stereo unspecified) + NC1CC1c1ccc(-c2cccc(O)c2)cc1 ?
Response: 46.6%

Request: What value of measured viability, T/C is listed for Cn1ncnc1C1c2n[nH]c(=O)c3cc(F)cc(c23)NC1c1ccc(F)cc1 (stereo unspecified) + NC1CC1c1ccc(-c2cccc(O)c2)cc1 ?
Response: 85.8%

----------
System: K24384-001-R-PDC complex spheroid viability
Test: Anticancer human tumor K24384-001-R-PDC cell line growth inhibition; active = viability on the fitted dose curve at most 10% of control; inactive = the rest;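 further: spheroids exposed to agents for seven days before luminescence viability reading; 100% = DMSO vehicle control viability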
Settings: second compound 3.16 µM; first compound 0.949 µM
Respond using exactly one of the listed classes: 1.0 (active), 0.0 (inactive)

compound	assigned_class
Nc1ccccc1NC(=O)c1ccc(CNC(=O)OCc2cccnc2)cc1 + NC1CC1c1ccc(-c2cccc(O)c2)cc1	1.0
NS(=O)(=O)OCC1CC(n2ccc3c(NC4CCc5ccccc54)ncnc32)CC1O (stereo not given) + NC1CC1c1ccc(-c2cccc(O)c2)cc1	0.0
O=C(C=Cc1cccc(S(=O)(=O)Nc2ccccc2)c1)NO + NC1CCC(NC2CC2c2ccccc2)CC1	1.0
CCN(c1cc(-c2ccc(CN3CCOCC3)cc2)cc(C(=O)NCc2c(C)cc(C)[nH]c2=O)c1C)C1CCOCC1 + NC1CCC(NC2CC2c2ccccc2)CC1	0.0

For the next question, use this compound.
Request: Hi, do you know how Nc1ccccc1NC(=O)c1ccc(CNC(=O)OCc2cccnc2)cc1 + NC1CCC(NC2CC2c2ccccc2)CC1 came out in this test?
Response: 1.0

----------
Test system: K24384-001-R-PDC complex spheroid viability
Assay: Anticancer human tumor K24384-001-R-PDC cell line growth inhibition;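 further: spheroids exposed to agents for seven days before luminescence viability reading; 100% = DMSO vehicle control viability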
Details: second compound 1 µM; first compound 0.000949 µM; stronger effect = lower value
recorded_endpoint: viability, T/C (%)
Number in %, nothing else.

Request: Can you look up the measured viability, T/C of CCc1c2c(nc3ccc(O)cc13)-c1cc3c(c(=O)n1C2)COC(=O)[C@]3(O)CC + NC1CCC(NC2CC2c2ccccc2)CC1 for me?
Response: 41.5

Request: Looking for the measured viability, T/C of Nc1ncn(C2CC(O)C(CO)S2)c(=O)n1 (stereo unspecified) + NC1CC1c1ccc(-c2cccc(O)c2)cc1 , can you help?
Response: 124

Request: Data request, read-out viability, T/C, for Nc1ncn(C2CC(O)C(CO)S2)c(=O)n1 (stereo unspecified) + NC1CCC(NC2CC2c2ccccc2)CC1
Response: 82.2

----------
Tested on: K24384-001-R-PDC complex spheroid viability
Assay: Anticancer human tumor K24384-001-R-PDC cell line growth inhibition;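 further: spheroids exposed to agents for seven days before luminescence viability reading; 100% = DMSO vehicle control viability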
Details: second compound 0.316 µM; first compound 0.03 µM; stronger effect = lower value
Recorded measurements of viability, T/C, one per entry
Give your result in % as a bare value.

Request: // returns reported viability, T/C for input NS(=O)(=O)OCC1CC(n2ccc3c(NC4CCc5ccccc54)ncnc32)CC1O (centres undefined) + NC1CC1c1ccc(-c2cccc(O)c2)cc1
Response: 156

Request: Can you share its viability, T/C? I mean this compound: Nc1ccccc1NC(=O)c1ccc(CNC(=O)OCc2cccnc2)cc1 + NC1CC1c1ccc(-c2cccc(O)c2)cc1
Response: 121

Request: I am curious: what viability, T/C value has been reported for Nc1ccccc1NC(=O)c1ccc(CNC(=O)OCc2cccnc2)cc1 + NC1CCC(NC2CC2c2ccccc2)CC1 ?
Response: 82.1

Request: Query (compound): CCN(c1cc(-c2ccc(CN3CCOCC3)cc2)cc(C(=O)NCc2c(C)cc(C)[nH]c2=O)c1C)C1CCOCC1 + NC1CC1c1ccc(-c2cccc(O)c2)cc1 ; field requested: viability, T/C
Response: 104
